Items are presented alongside their recorded half-life.
assay overview: Elimination half life in Sprague-Dawley rat at 2 m/kg, iv
Format: ADME, organism-based
experimental context: in vivo, read-out: beta t1/2
Answer format: numeric, min implied, no suffix.

Some compounds with recorded half-life:
| smiles repr | half-life [min] |
| --- | --- |
| CC[C@H](C)[C@@H]1NCCOc2ccccc2CCCNC(=O)[C@@H](Cc2ccc(Cl)cc2)NC(=O)[C@@H](C)N(C)C1=O | 33 |
| CCC[C@@H]1NC[C@@H](C)Oc2ccccc2CCCNC(=O)[C@@H](Cc2ccc(F)cc2)NC(=O)[C@@H](C)N(C)C1=O | 29 |
| CC[C@H](C)[C@@H]1NC[C@@H](C)Oc2ccccc2CCCNC(=O)[C@@H](Cc2ccc(F)cc2)NC(=O)[C@@H](C)N(C)C1=O | 44 |
| C[C@@H]1CN[C@@H](C2CCCCC2)C(=O)N(C)[C@H](C)C(=O)N[C@H](Cc2ccc(F)cc2)C(=O)NCCCc2ccccc2O1 | 74 |
| C[C@@H]1CN[C@@H](C2CC2)C(=O)N(C)[C@H](C)C(=O)N[C@H](Cc2ccccc2)C(=O)NCCCc2ccccc2O1 | 32 |
| C[C@@H]1CN[C@@H](C2CC2)C(=O)N(C)[C@H](C)C(=O)N[C@H](Cc2ccc(Cl)cc2)C(=O)NCCCc2ccccc2O1 | 41 |

Pending compound:
Could you tell me which half-life is on file for CC(C)[C@@H]1NC[C@@H](C)Oc2ccccc2CCCNC(=O)[C@@H](Cc2ccc(F)cc2)NC(=O)[C@@H](C)N(C)C1=O ?
34

----------
assay overview: Dissociation constant, pKa of the compound
Assay type: physicochemical
Entries and their pKa values follow.
Number only, please.

| compound | pKa |
| --- | --- |
| CCC[C@@H]1NCCOc2ccccc2CCCNC(=O)[C@@H](Cc2ccccc2)NC(=O)[C@@H](C)N(C)C1=O | 6.45 |

GET /values?readout=pKa&item= C[C@@H]1C(=O)N[C@H](Cc2ccccc2)C(=O)NCCCc2ccccc2OCCN[C@@H](C2CC2)C(=O)N1C
6.72

And C[C@@H]1CN[C@@H](C2CC2)C(=O)N(C)[C@H](C)C(=O)N[C@H](Cc2ccc(F)cc2)C(=O)NCCCc2ccccc2O1.Cl.O [ULIMORELIN HYDROCHLORIDE] ?
7.17

----------
Below: a set of entries, each annotated with reported Vd.
assay overview: Volume of distribution at steady state in Sprague-Dawley rat at 2 m/kg, iv
Assay type: ADME, organism-based
experimental context: in vivo, read-out: Vdss
Use L/kg as the unit, but write only the number.

Below, 5 compounds whose answers are already recorded.
| smiles repr | unit spec | Vd |
| --- | --- | --- |
| C[C@@H]1CN[C@@H](C2CC2)C(=O)N(C)[C@H](C)C(=O)N[C@H](Cc2ccc(F)cc2)C(=O)NCCCc2ccc(F)cc2O1 | L/kg | 0.9 |
| CC[C@H](C)[C@@H]1NCCOc2ccccc2CCCNC(=O)[C@@H](Cc2ccc(Cl)cc2)NC(=O)[C@@H](C)N(C)C1=O | L/kg | 3.2 |
| C[C@@H]1CN[C@@H](C2CCCCC2)C(=O)N(C)[C@H](C)C(=O)N[C@H](Cc2ccc(F)cc2)C(=O)NCCCc2ccccc2O1 | L/kg | 4.7 |
| CCC[C@@H]1NC[C@@H](C)Oc2ccccc2CCCNC(=O)[C@@H](Cc2ccc(F)cc2)NC(=O)[C@@H](C)N(C)C1=O | L/kg | 1.7 |
| C[C@@H]1C(=O)N[C@H](Cc2ccc(F)cc2)C(=O)NCCCc2ccc(F)cc2OCCN[C@@H](C2CC2)C(=O)N1C | L/kg | 1.8 |

// Vd lookup, key: CC(C)[C@@H]1NC[C@@H](C)Oc2ccccc2CCCNC(=O)[C@@H](Cc2ccc(F)cc2)NC(=O)[C@@H](C)N(C)C1=O
2

Next record, please: CC[C@H](C)[C@@H]1NC[C@@H](C)Oc2ccccc2CCCNC(=O)[C@@H](Cc2ccc(F)cc2)NC(=O)[C@@H](C)N(C)C1=O
2.5

Query C[C@@H]1CN[C@@H](C2CC2)C(=O)N(C)[C@H](C)C(=O)N[C@H](Cc2ccc(Cl)cc2)C(=O)NCCCc2ccccc2O1 next
1.4

Next compound up: C[C@@H]1C(=O)N[C@H](Cc2ccc(F)cc2)C(=O)NCCCc2ccccc2OCCN[C@@H](C2CC2)C(=O)N1C
1.4

Repeat with C[C@@H]1C(=O)N[C@H](Cc2ccc(F)cc2)C(=O)NCCCc2cccc3c2O[C@H](CC3)CN[C@@H](C2CC2)C(=O)N1C
1.1

Moving on to the next compound: C[C@@H]1CN[C@@H](C2CC2)C(=O)N(C)[C@H](C)C(=O)N[C@H](Cc2ccccc2)C(=O)NCCCc2ccccc2O1
1.3

----------
assay overview: Clearance in cynomolgus monkey at 0.5 mg/kg, iv
experimental context: in vivo
reported metric: clearance (mL/min/kg)
Hi! Could you send only the number? It should be in mL/min/kg, unit omitted.

Quick one: clearance of C[C@@H]1C(=O)N[C@H](Cc2ccc(F)cc2)C(=O)NCCCc2ccc(F)cc2OCCN[C@@H](C2CC2)C(=O)N1C ?
20

----------
assay overview: Permeability across mucosal to serosal side in human Caco2 cells
Type: ADME, cell-based
experimental context: Caco-2, read-out: permeability
Recorded Papp A→B by entry
Write the value in ×10⁻⁶ cm/s as a bare number.

| compound | unit spec | Papp A→B |
| --- | --- | --- |
| C[C@@H]1CN[C@@H](C2CC2)C(=O)N(C)[C@H](C)C(=O)N[C@H](Cc2ccc(F)cc2)C(=O)NCCCc2ccccc2O1.Cl.O [ULIMORELIN HYDROCHLORIDE] | ×10⁻⁶ cm/s | 15 |

What does the data say about its Papp A→B? Entry: CC[C@H](C)[C@@H]1NCCOc2ccccc2CCCNC(=O)[C@@H](Cc2ccc(Cl)cc2)NC(=O)[C@@H](C)N(C)C1=O
14

Again, but for C[C@@H]1C(=O)N[C@H](Cc2ccc(F)cc2)C(=O)NCCCc2ccc(F)cc2OCCN[C@@H](C2CC2)C(=O)N1C
19.8

----------
assay overview: Cmax in Sprague-Dawley rat at 8 mg/kg, po
Format: ADME, organism-based
Set-up: dose 8 mg/kg, route oral
experimental context: in vivo
In this section we review reported Cmax values for a set of molecules.
Output should be the measured figure followed by the unit it is expressed in.

# example entries with known answers
| molecule | Cmax |
| --- | --- |
| CC[C@H](C)[C@@H]1NCCOc2ccccc2CCCNC(=O)[C@@H](Cc2ccc(Cl)cc2)NC(=O)[C@@H](C)N(C)C1=O | 60 nM |
| C[C@@H]1CN[C@@H](C2CC2)C(=O)N(C)[C@H](C)C(=O)N[C@H](Cc2ccc(F)cc2)C(=O)NCCCc2ccc(F)cc2O1 | 750 nM |
| C[C@@H]1CN[C@@H](C2CC2)C(=O)N(C)[C@H](C)C(=O)N[C@H](Cc2ccc(F)cc2)C(=O)NCCCc2ccccc2O1.Cl.O [ULIMORELIN HYDROCHLORIDE] | 390 nM |
| C[C@@H]1CN[C@@H](C2CC2)C(=O)N(C)[C@H](C)C(=O)N[C@H](Cc2ccc(Cl)cc2)C(=O)NCCCc2ccccc2O1 | 670 nM |

Quick check: Cmax of C[C@@H]1C(=O)N[C@H](Cc2ccc(F)cc2)C(=O)NCCCc2ccc(F)cc2OCCN[C@@H](C2CC2)C(=O)N1C ?
900 nM

----------
target under test: UniProtKB P11712
Sequence (P11712 whole entry): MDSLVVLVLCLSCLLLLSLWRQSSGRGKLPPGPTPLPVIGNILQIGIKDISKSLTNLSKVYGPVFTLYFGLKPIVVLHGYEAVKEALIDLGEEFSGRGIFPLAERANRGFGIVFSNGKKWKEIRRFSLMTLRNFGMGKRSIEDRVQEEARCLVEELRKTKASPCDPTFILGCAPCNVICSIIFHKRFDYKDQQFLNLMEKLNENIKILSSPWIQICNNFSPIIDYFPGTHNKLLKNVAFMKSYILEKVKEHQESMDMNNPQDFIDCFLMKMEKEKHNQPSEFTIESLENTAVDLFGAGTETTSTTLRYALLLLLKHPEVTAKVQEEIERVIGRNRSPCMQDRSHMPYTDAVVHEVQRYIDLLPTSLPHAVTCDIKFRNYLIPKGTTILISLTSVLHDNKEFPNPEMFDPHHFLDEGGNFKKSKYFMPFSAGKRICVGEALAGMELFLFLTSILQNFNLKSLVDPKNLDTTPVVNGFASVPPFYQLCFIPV
reported metric: IC50 (µM)
All answers are understood in µM, so give the number only.

Observed IC50 on UniProtKB P11712 for C[C@@H]1CN[C@@H](C2CC2)C(=O)N(C)[C@H](C)C(=O)N[C@H](Cc2ccc(F)cc2)C(=O)NCCCc2ccccc2O1.Cl.O [ULIMORELIN HYDROCHLORIDE] , please.
66

----------
target under test: Cytochrome P450 2C19 (Homo sapiens, UniProt P33261)
Sequence (P33261 whole entry): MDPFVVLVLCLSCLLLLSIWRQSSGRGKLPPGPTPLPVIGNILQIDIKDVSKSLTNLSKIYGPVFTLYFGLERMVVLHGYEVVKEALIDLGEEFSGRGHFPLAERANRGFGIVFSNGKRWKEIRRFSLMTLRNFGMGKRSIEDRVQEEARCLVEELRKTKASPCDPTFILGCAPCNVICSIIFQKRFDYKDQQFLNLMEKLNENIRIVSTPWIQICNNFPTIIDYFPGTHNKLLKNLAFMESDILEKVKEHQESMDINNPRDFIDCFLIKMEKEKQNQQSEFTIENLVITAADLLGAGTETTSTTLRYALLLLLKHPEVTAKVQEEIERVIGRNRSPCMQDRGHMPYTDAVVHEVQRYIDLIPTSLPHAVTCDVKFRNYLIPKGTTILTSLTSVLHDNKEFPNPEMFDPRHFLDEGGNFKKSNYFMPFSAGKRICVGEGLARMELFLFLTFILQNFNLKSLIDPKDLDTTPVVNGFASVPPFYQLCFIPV
pIC50: −log10 of the molar value.
reported metric: pIC50

Record lookup: for Cytochrome P450 2C19 (Homo sapiens, UniProt P33261), what pIC50 belongs to C[C@@H]1CN[C@@H](C2CC2)C(=O)N(C)[C@H](C)C(=O)N[C@H](Cc2ccc(F)cc2)C(=O)NCCCc2ccccc2O1.Cl.O [ULIMORELIN HYDROCHLORIDE] ?
< 4.00

----------
target under test: Growth hormone secretagogue receptor type 1 (Homo sapiens, UniProt Q92847)
Sequence (Q92847 whole entry): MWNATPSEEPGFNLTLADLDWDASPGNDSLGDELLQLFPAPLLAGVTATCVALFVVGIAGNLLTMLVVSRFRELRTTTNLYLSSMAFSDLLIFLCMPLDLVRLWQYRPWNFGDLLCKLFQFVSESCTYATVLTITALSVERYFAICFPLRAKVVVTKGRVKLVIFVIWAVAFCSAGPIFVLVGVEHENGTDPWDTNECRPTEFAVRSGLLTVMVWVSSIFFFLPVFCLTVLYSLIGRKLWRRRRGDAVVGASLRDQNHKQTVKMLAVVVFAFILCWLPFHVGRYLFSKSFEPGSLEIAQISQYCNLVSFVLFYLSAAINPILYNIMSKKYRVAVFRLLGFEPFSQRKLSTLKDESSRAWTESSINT
assay overview: Agonist activity at human GRLN receptor expressed in HEK293 cells assessed as calcium binding by Ca2+ bioluminescence aequorin assay
pEC50: −log10 of the molar value.
Label condition met when pEC50 is at or above 7; otherwise label condition not met.

The following compounds have reported results that may help.
| compound | classification |
| --- | --- |
| CC[C@H](C)[C@@H]1NCCOc2ccccc2CCCNC(=O)[C@@H](Cc2ccc(Cl)cc2)NC(=O)[C@@H](C)N(C)C1=O | condition met |
| CCC[C@@H]1NCCOc2ccccc2CCCNC(=O)[C@@H](Cc2ccc(O)cc2)NC(=O)CN(C)C1=O | condition met |
| Cc1ccc(C[C@H]2NC(=O)[C@@H](C)N(C)C(=O)[C@H](C3CC3)NCCOc3ccccc3CCCNC2=O)cc1 | condition met |

Decide: is the reported value of pEC50 for CC[C@H](C)[C@@H]1NCCCC/C=C/CCNC(=O)[C@@H](Cc2ccccc2)NC(=O)[C@@H](C)N(C)C1=O (mixture of isomers) equal to or greater than 7?
condition not met

Another compound to check: C[C@@H]1CN[C@@H](C2CC2)C(=O)N(C)[C@H](C)C(=O)N[C@H](Cc2ccc(F)cc2)C(=O)NCCCc2ccccc2O1.Cl.O [ULIMORELIN HYDROCHLORIDE]
condition met
